Biological target: HIV-1 Env of isolate MGRM-D-002 (subtype D) (HIV-1)
Assay: cell-based or functional assay

| binder | scale.unit | relational.operator | IC50 (neutralization) |
| --- | --- | --- | --- |
| PGT-125 (antibody, V domains shown) VH: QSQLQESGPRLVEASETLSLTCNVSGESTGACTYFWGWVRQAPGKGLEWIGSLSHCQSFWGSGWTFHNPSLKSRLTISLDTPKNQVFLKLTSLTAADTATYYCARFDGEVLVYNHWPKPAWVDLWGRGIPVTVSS VL: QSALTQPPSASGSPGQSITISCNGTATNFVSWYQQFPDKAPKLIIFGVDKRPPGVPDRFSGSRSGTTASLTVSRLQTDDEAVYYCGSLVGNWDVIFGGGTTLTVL | µg/mL | = | 0.118 |
| PGT-136 (antibody, V domains shown) VH: QLQLQESGPGLVKPSETLSLTCTVSGGSMRGTDWGENDFHYGWIRQSSAKGLEWIGSIHWRGRTTHYKTSFRSRATLSIDTSNNRFSLTFSFVTAADTAVYYCARHKYHDIFRVVPVAGWFDPWGQGLLVTVSS VL: EIVMTQSPPTLSVSPGETATLSCRASQNVKNNLAWYQLKPGQAPRLLIFDASSRAGGIPDRFSGSGYGTDFTLTVNSVQSEDFGDYFCQQYEEWPRTFGQGTKVDIK | µg/mL | > | 50 |

Reference source: patent US20160264649A1
